Assay: Phase 2 metabolic stability in monkey liver microsomes assessed as compound remaining at 10 uM measured for 1 hr by LC-MS/MS analysis
Format: ADME, Macaca mulatta
Settings: rhesus monkey, read-out: Stability
READOUT_NAME: remaining at 1 h, 10 µM

O=C(O)c1cccc(-c2cccc(CCS)c2C(=O)O)c1 yielded remaining at 1 h, 10 µM of > 90%

###

Test: Cmax in cynomolgus monkey at 5 mg/kg, iv administered as bolus injection by LC-MS/MS analysis
Format: ADME, organism-based, Macaca fascicularis
Parameters: dose 5 mg/kg, route intravenous
Settings: in vivo
READOUT_NAME: Cmax (µg/mL)
Express it in µg/mL; write the number only.

Notebook: O=C(O)c1cccc(-c2cccc(CCS)c2C(=O)O)c1 , Cmax read as 68

###

Assay: Tmax in Sprague-Dawley rat at 0.1 mg/kg, po administered via gavage measured under fasted conditions by LC-MS/MS analysis
Assay type: ADME, organism-based
Set-up: dose 0.1 mg/kg, route oral
Conditions: in vivo
READOUT_NAME: Tmax (min)
Give the value in min but do not write min after it.

// field: Tmax; key: O=C(O)c1cccc(-c2cccc(CCS)c2C(=O)O)c1 ; value = 49.8

###

Assay: Tmax in Sprague-Dawley rat at 10 mg/kg, po administered via gavage measured under fasted conditions by LC-MS/MS analysis
Assay type: ADME, organism-based
Parameters: dose 10 mg/kg, route oral
Settings: in vivo
READOUT_NAME: Tmax (h)
Give the value in h but do not write h after it.

Form field Tmax, entry O=C(O)c1cccc(-c2cccc(CCS)c2C(=O)O)c1 : 1.03

###

Test: Half life in Sprague-Dawley rat at 0.1 mg/kg, po administered via gavage measured under fasted conditions by LC-MS/MS analysis
Assay type: ADME, organism-based
Set-up: dose 0.1 mg/kg, route oral
Details: in vivo
READOUT_NAME: half-life (h)
Give just the number in h; leave the unit off.

half-life reading for O=C(O)c1cccc(-c2cccc(CCS)c2C(=O)O)c1 : 9.33

###

Assay: Cmax in Sprague-Dawley rat sciatic nerve at 10 mg/kg/day, po administered measured per gm of tissue for 5 days by LC-MS/MS analysis
Type: ADME, organism-based
Set-up: dose 10 mg/kg/day, route oral
READOUT_NAME: Cmax (ng/g)
Write the value in ng/g as a bare number.

Given item O=C(O)c1cccc(-c2cccc(CCS)c2C(=O)O)c1 , the value recorded as its Cmax is 165

###

Experiment: Cmax in Sprague-Dawley rat brain at 10 mg/kg/day, po administered for 5 days measured per gm of tissue by LC-MS/MS analysis
Format: ADME, organism-based
Design: dose 10 mg/kg/day, route oral
READOUT_NAME: Cmax (ng/g)
Reply with just the number (in ng/g).

// Cmax value for O=C(O)c1cccc(-c2cccc(CCS)c2C(=O)O)c1 : 32.4

###

Test: AUC(0 to last) in Sprague-Dawley rat at 30 mg/kg, iv administered as bolus injection measured under fasted conditions by LC-MS/MS analysis
Type: ADME, organism-based
Design: time 0 - last, dose 30 mg/kg, route intravenous
Conditions: plasma
READOUT_NAME: AUC(0-t) (µg·h/mL)
Numbers only; they are read as µg·h/mL.

Record O=C(O)c1cccc(-c2cccc(CCS)c2C(=O)O)c1 , field AUC(0-t): 202

###

Test: Phase 1 metabolic stability in monkey liver microsomes assessed as compound remaining at 10 uM measured for 1 hr by LC-MS/MS analysis in absence of cofactors
Type: ADME, Macaca mulatta
Conditions: rhesus monkey, read-out: Stability
READOUT_NAME: remaining at 1 h, 10 µM

For reference, reported remaining at 1 h, 10 µM for O=C(O)c1cccc(-c2cccc(CCS)c2C(=O)O)c1 stands at > 90%
